B1: Segment polarity protein dishevelled homolog DVL-3, residues 2 to 81; numbered along this chain, Q92997 (parent)
chain: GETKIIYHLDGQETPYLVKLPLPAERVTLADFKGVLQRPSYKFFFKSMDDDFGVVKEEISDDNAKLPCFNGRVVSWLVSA

Variants of: B1
assay_explanation: abundance fitness (aPCA) (normalised: wild type 0, dead -1); higher = more abundant; growth selection in yeast, the domain comes from the species named
experimental_context: Homo sapiens
Recorded measurements of abundance fitness, one per entry

Please review the entries below; each comes with its answer.
{"columns": ["mutant_name", "abundance fitness"],
 "data": [
  ["T28M", -0.604],
  ["N70E", -0.001],
  ["V78F", -0.162]
]}

Input V35Y . Output abundance fitness: -0.212

Input R72W . Output abundance fitness: 0.139
